- Study Target: Leukotriene B4 receptor 1 (Homo sapiens)
- Assay Summary: Inhibition of [3H]LTB4 binding to leukotriene B4 receptor from human peripheral neutrophils (PMN), at a concentration of 1 uM
For each record, write down the corresponding inhibition.
Your answer is read as %, so omit the unit and give the number.

Kindly note the recorded inhibition for C=CCc1cc(C(C)=O)c(O)cc1OCCCCO , which is 9

Kindly note the recorded inhibition for C=CCc1cc(C(C)=O)c(O)cc1OCCCCCC , which is 9

Kindly note the recorded inhibition for CC(=O)c1ccc(OCCCCC#N)cc1O , which is 0

Kindly note the recorded inhibition for CCc1cc(C(C)=O)c(O)c(C)c1OCCCCCC(C)(C)c1nnn[nH]1 , which is 9

Kindly note the recorded inhibition for C=CCc1cc(C(=O)CC)c(O)cc1OCCCCC#N , which is 36

Kindly note the recorded inhibition for CCc1cc(C(C)=O)c(O)cc1Oc1cccc(C#N)c1 , which is 8

Kindly note the recorded inhibition for CCc1cc(C(C)=O)c(O)cc1OCCCC(C)(C)C(=O)O , which is 43

Kindly note the recorded inhibition for CCc1cc(C(C)=O)c(O)cc1OCCCCN1CCOCC1 , which is 9

Kindly note the recorded inhibition for C=CCc1cc(C(C)=O)c(O)cc1OCCCCCC(C)(C)O , which is 60

Kindly note the recorded inhibition for CCc1cc(C(C)=O)c(O)cc1OCc1ccc(C#N)cc1 , which is 11
